# Test protocol: protein stability index of a GFP-peptide fusion (yeast GPS) (PSI 1-4); higher = more stable; sorted into four equal gates, so the index is relative within each strain
# Experimental setup: pdr5∆
Note to self: values exactly at 3 are criterion met. So protein stability index at or above 3 is criterion met, below is criterion not met.

* RKASCIWLLSYIQYLGH [ECM29] | criterion not met
* KAPEAEQVLSAAATFPI [RPL13A] | criterion not met
* TAKKTNRSAYDSKNTPN [YDL088C/ASM4] | criterion not met
* LNSLKDERSQGEKNFTS [SMC4] | criterion met
* PYFEQKIQETELKIRSK [RPT6] | criterion not met
* LTADYDALDIANRIGYI [RPL25] | criterion met
* NVLKAPFIKSESKPFSS [SIR4] | criterion not met
* LNFYITNVPKAKKRKTL [SIR3] | criterion not met

protein stability index >= 3 for SIQMEFMLRKQDPKTLV [SSN2] ?
criterion not met

Hi, just wondering whether DVLKDGENNINFQKASA [BRN1] shows protein stability index of 3 or higher.
criterion met

Entry HINSILLARVIQMNNSL [SNF11] : is its protein stability index no less than 3?
criterion not met

Is it the case that SASVRALIENWAADSVS [FAS1] has protein stability index reaching or exceeding 3?
criterion not met

For this sequence, is measured protein stability index 3 or higher? KTTDHLFDAAFYMKKDA [RPO31]
criterion met

Is protein stability index at least 3? Consider KGRYAPETGDHVVGRIA [RRP4]
criterion met

Could you verify whether the entry HGINLQNKKNLKWVAVV [SSN2] shows protein stability index of no less than 3?
criterion met

###

# Test protocol: protein stability index of a GFP-peptide fusion (yeast GPS) (PSI 1-4); higher = more stable; sorted into four equal gates, so the index is relative within each strain
# Experimental setup: ubr1∆
Measured quantity: protein stability index
Hey, just send me the number, nothing else.

Solved cases (4 shown):
• VFPSSILDITDEELVSH [RPP0] = 2.99
• DFKAKYCDSMGRPQRKM [RPB5] = 3.32
• FGAKSDEKKDSDSSKPA [YJL041W/NSP1] = 3.04
• KDWTDTFVYILEKLIFD [SRB8] = 1.93

Suppose we examine the sequence TTTNTDQNNATMGEETA [SNF12] ; what protein stability index value has been reported?
3.21

###

# Test protocol: protein stability index of a GFP-peptide fusion (yeast GPS) (PSI 1-4); higher = more stable; sorted into four equal gates, so the index is relative within each strain
# Experimental setup: san1∆
Measured quantity: protein stability index
// return a plain number; no unit text

A selection of reference data follows.
- AAPSAADIKAVVESVGA [RPP2B]: 3.05
- LSHYIRQCFQDNCCDFK [MED1]: 2.94
- VVDFKNKENDNVPSTKF [SNF12]: 3.04
- VSQVRVVPNEKADDDSV [ASC1]: 3.06

Would you kindly look at the next entry?
# query: protein stability index of entry KISGGNDKQGFPMKQGV [RPS6A]
3.01

###

# Test protocol: protein stability index of a GFP-peptide fusion (yeast GPS) (PSI 1-4); higher = more stable; sorted into four equal gates, so the index is relative within each strain
# Experimental setup: san1∆
Measured quantity: protein stability index
Lab note: jot down the number only; don't add units.

// solved cases for protein stability index follow
- HDEKLSDELHNQSTIYE [LIN1]: 2.73
- KRVVVPQALRVLRLKPG [RPL16A]: 3.15
- KRHRSSYYDNDLDETTQ [YML031W/NDC1]: 2.68
- SSSNGGGSAKPSLKFKP [RPC53]: 2.74
- DGNNANYIYAGYENGML [RPN14]: 2.79
- DVVGTLSRNGKPVMEVT [FAS1]: 2.65
- LPDGKNGNLEEEFAYVD [MED6]: 3.42
- HVLVGDLIKFSAETLSE [FAS1]: 2.67

If you can, please state the reported protein stability index value of SLTPTQSDSAKVEIKKV [PRP28] .
2.92

Which protein stability index is reported for this sequence? EQTVSAVTEATSTNGDS [RGR1]
3.28

What value of measured protein stability index is listed for FGKKRLDLAGPLLAQLF [RPB2] ?
1.42

GET /values?readout=protein stability index&item= EKKPAAKKTSTSVDGKK [HTB2]
2.72

Would you kindly share the measured protein stability index for KILRDNIQGITKPAIRR [HHF1] ?
3.08

Could you share which protein stability index value was measured for TADKIRIHAKNFEAALF [GAL11] ?
1.51
